experimental details: Rat liver microsome stability
Type: in vitro ADME
experimental conditions: rat, liver microsomes; Table 4; read-out: Rat liver microsome (RLM) stability t1/2
Excerpt: The liver is the most important site of drug metabolism in the body. Approximately 60% of marketed compounds are cleared by hepatic CYP-mediated metabolism (McGinnity, D. F.; Soars, M. G.; Urbanowicz, R. A. and Riley, R. J.; Drug Metab. Disp. 32, 1247, (2004)). Liver microsomes are subcellular fractions which contain membrane bound drug metabolizing enzymes. Microsomes can be used to determine the in vitro intrinsic clearance of a compound. […]
In this section we review reported half-life values for a set of molecules.

// worked examples, half-life included
{"columns": ["molecule", "meas value"],
 "data": [
  ["O=C(Cn1ccc2scc(-c3ccc(F)c(Cl)c3)c2c1=O)N1CCC(F)C1 (stereo not shown)", "37.8 min"],
  ["CC1(F)CN(C(=O)Cn2ccn3ccc(-c4ccc(Cl)c(Cl)c4)c3c2=O)C1", "75 min"],
  ["CC1(F)CN(C(=O)Cn2ccn3ccc(-c4ccc(F)c(Cl)c4)c3c2=O)C1", "37.3 min"]
]}

In the following, a different molecule is considered.
input: Endpoint output: half-life of CC1(F)CN(C(=O)Cn2cnc3c(c(-c4ccc(F)c(Cl)c4)cn3C3CC3)c2=O)C1 . Value?
output: > 120 min
